Cited source: ChEMBL document CHEMBL3853339

Item-by-item account of viability at 24 h, 100 µM
# Measurement description: Cytotoxicity against LPS-activated human BV2 cells assessed as cell viability at 100 uM after 24 hrs by MTT assay (reference value: 98.03 to 98.84%)
# Format: toxicity, cell-based, Mus musculus, BV-2
# Condition description: read-out: Activity
Quantity: viability at 24 h, 100 µM

[[record]]
compound = "COc1cc(/C=C/C(=O)O)cc(OC)c1O[C@@H]1O[C@H](CO)[C@@H](O)[C@H](O)[C@H]1O"
endpoint_value = "95.6%"

[[record]]
compound = "COc1cc([C@@H]2OC[C@H]3[C@@H]2CO[C@H]3c2cc(OC)c(O[C@@H]3O[C@H](CO)[C@@H](O)[C@H](O)[C@H]3O)c(OC)c2)cc(OC)c1O[C@@H]1O[C@H](CO)[C@@H](O)[C@H](O)[C@H]1O"
endpoint_value = "94.9%"

[[record]]
compound = "O=c1c(O[C@@H]2O[C@H](CO)[C@@H](O)[C@H](O)[C@H]2O)c(-c2ccc(O)c(O)c2)oc2cc(O)cc(O)c12 [ISOQUERCETIN]"
endpoint_value = "85.2%"

[[record]]
compound = "COc1cc(-c2oc3cc(O)cc(O)c3c(=O)c2O[C@@H]2O[C@H](CO[C@@H]3O[C@@H](C)[C@H](O)[C@@H](O)[C@H]3O)[C@@H](O)[C@H](O)[C@H]2O)ccc1O [NARCISSIN]"
endpoint_value = "88.8%"

[[record]]
compound = "COc1cc([C@H]2OC[C@H]3[C@@H]2CO[C@@H]3c2cc(OC)c(O[C@@H]3O[C@H](CO)[C@@H](O)[C@H](O)[C@H]3O)c(OC)c2)cc(OC)c1O"
endpoint_value = "94.4%"

[[record]]
compound = "COc1cc(CO)cc(OC)c1O[C@@H]1O[C@H](CO)[C@@H](O)[C@H](O)[C@H]1O"
endpoint_value = "87%"

[[record]]
compound = "COc1cc([C@@H]2OC[C@H]3[C@@H]2CO[C@@H]3c2cc(OC)c(O[C@@H]3O[C@H](CO)[C@@H](O)[C@H](O)[C@H]3O)c(OC)c2)cc(OC)c1O"
endpoint_value = "100%"

[[record]]
compound = "O=c1c(O)c(-c2cc(O)c(O)c(O)c2)oc2cc(O)cc(O)c12 [MYRICETIN]"
endpoint_value = "116%"

[[record]]
compound = "Oc1cc(O)c2c(c1)O[C@H](c1cc(O)c(O)c(O)c1)[C@@H](O)C2 [GALLOCATECHIN]"
endpoint_value = "82.6%"


* * *

# Measurement description: Cytotoxicity against LPS-activated human BV2 cells assessed as cell viability at 100 uM after 24 hrs by MTT assay (reference value: 98.03 to 98.84%)
# Assay type: toxicity, cell-based, Mus musculus, BV-2
# Condition description: read-out: Activity
Quick reference for viability at 24 h, 100 µM among some molecules
Quantity: viability at 24 h, 100 µM (%)

[[record]]
molecule = "O=c1c(O)c(-c2ccc(O)c(O)c2)oc2cc(O)cc(O)c12"
endpoint_value = 99.7

[[record]]
molecule = "C[C@@H]1O[C@@H](Oc2c(-c3ccc(O)c(O)c3)oc3cc(O)cc(O)c3c2=O)[C@H](O)[C@H](O)[C@H]1O"
endpoint_value = 96.5

[[record]]
molecule = "C[C@@H]1O[C@@H](OC[C@H]2O[C@@H](Oc3c(-c4ccc(O)cc4)oc4cc(O)cc(O)c4c3=O)[C@H](O)[C@@H](O)[C@@H]2O)[C@H](O)[C@H](O)[C@H]1O [NICOTIFLOROSIDE]"
endpoint_value = 113

[[record]]
molecule = "O=C(O)/C=C\\c1ccc(O[C@@H]2O[C@H](CO)[C@@H](O)[C@H](O)[C@H]2O)cc1"
endpoint_value = 90

[[record]]
molecule = "Oc1cc(O)c2c(c1)O[C@H](c1ccc(O)c(O)c1)[C@@H](O)C2"
endpoint_value = 117

[[record]]
molecule = "Oc1cc(O)c2c(c1)O[C@H](c1ccc(O)c(O)c1)[C@H](O)C2 [(-)-EPICATECHIN]"
endpoint_value = 93.2

[[record]]
molecule = "O=c1c(O[C@@H]2O[C@H](CO)[C@@H](O)[C@H](O)[C@H]2O[C@@H]2O[C@H](CO)[C@@H](O)[C@H](O)[C@H]2O)c(-c2ccc(O)c(O)c2)oc2cc(O)cc(O)c12"
endpoint_value = 108

[[record]]
molecule = "Oc1cc(O)c2c(c1)O[C@H](c1cc(O)c(O)c(O)c1)[C@H](O)C2 [EPIGALLOCATECHIN]"
endpoint_value = 94.6

[[record]]
molecule = "C[C@@H]1O[C@@H](OC[C@H]2O[C@@H](Oc3c(-c4ccc(O)c(O)c4)oc4cc(O)cc(O)c4c3=O)[C@H](O)[C@@H](O)[C@@H]2O)[C@H](O)[C@H](O)[C@H]1O"
endpoint_value = 95

[[record]]
molecule = "Oc1cc(O)c2c(c1)O[C@]1(c3ccc(O)c(O)c3)Oc3cc(O)c4c(c3[C@H]2[C@@H]1O)O[C@@]1(c2ccc(O)c(O)c2)Oc2cc(O)c3c(c2[C@@H]4[C@H]1O)O[C@@H](c1ccc(O)c(O)c1)[C@H](O)C3"
endpoint_value = 112

[[record]]
molecule = "O=C(O)/C=C/c1ccc(O[C@@H]2O[C@H](CO)[C@@H](O)[C@H](O)[C@H]2O)cc1"
endpoint_value = 94.7

[[record]]
molecule = "C[C@@H]1O[C@@H](OC[C@H]2O[C@@H](Oc3c(-c4cc(O)c(O)c(O)c4)oc4cc(O)cc(O)c4c3=O)[C@H](O)[C@@H](O)[C@@H]2O)[C@H](O)[C@H](O)[C@H]1O"
endpoint_value = 86.9

[[record]]
molecule = "C[C@@H]1O[C@@H](Oc2c(-c3cc(O)c(O)c(O)c3)oc3cc(O)cc(O)c3c2=O)[C@H](O)[C@H](O)[C@H]1O"
endpoint_value = 107


* * *

# Measurement description: Cytotoxicity against LPS-activated human BV2 cells assessed as cell viability at 1 uM after 24 hrs by MTT assay (reference value: 98.03 to 98.84%)
# Format: toxicity, cell-based, Mus musculus, BV-2
# Condition description: read-out: Activity
Quantity: viability at 24 h, 1 µM (%)

[[record]]
compound = "Oc1cc(O)c2c(c1)O[C@H](c1ccc(O)c(O)c1)[C@@H](O)C2 [CIANIDANOL]"
quantity = "viability at 24 h, 1 µM"
endpoint_value = 81.5

[[record]]
compound = "COc1cc(CO)cc(OC)c1O[C@@H]1O[C@H](CO)[C@@H](O)[C@H](O)[C@H]1O"
quantity = "viability at 24 h, 1 µM"
endpoint_value = 91.1

[[record]]
compound = "Oc1cc(O)c2c(c1)O[C@H](c1cc(O)c(O)c(O)c1)[C@@H](O)C2 [GALLOCATECHIN]"
quantity = "viability at 24 h, 1 µM"
endpoint_value = 89.5

[[record]]
compound = "COc1cc([C@@H]2OC[C@H]3[C@@H]2CO[C@H]3c2cc(OC)c(O[C@@H]3O[C@H](CO)[C@@H](O)[C@H](O)[C@H]3O)c(OC)c2)cc(OC)c1O[C@@H]1O[C@H](CO)[C@@H](O)[C@H](O)[C@H]1O"
quantity = "viability at 24 h, 1 µM"
endpoint_value = 100

[[record]]
compound = "O=c1c(O)c(-c2ccc(O)c(O)c2)oc2cc(O)cc(O)c12 [QUERCETIN]"
quantity = "viability at 24 h, 1 µM"
endpoint_value = 87.5

[[record]]
compound = "Oc1cc(O)c2c(c1)O[C@H](c1ccc(O)c(O)c1)[C@H](O)C2 [(-)-EPICATECHIN]"
quantity = "viability at 24 h, 1 µM"
endpoint_value = 84.4

[[record]]
compound = "C[C@@H]1O[C@@H](Oc2c(-c3cc(O)c(O)c(O)c3)oc3cc(O)cc(O)c3c2=O)[C@H](O)[C@H](O)[C@H]1O"
quantity = "viability at 24 h, 1 µM"
endpoint_value = 97.9

[[record]]
compound = "COc1cc([C@H]2OC[C@H]3[C@@H]2CO[C@@H]3c2cc(OC)c(O[C@@H]3O[C@H](CO)[C@@H](O)[C@H](O)[C@H]3O)c(OC)c2)cc(OC)c1O"
quantity = "viability at 24 h, 1 µM"
endpoint_value = 92.9

[[record]]
compound = "O=c1c(O)c(-c2cc(O)c(O)c(O)c2)oc2cc(O)cc(O)c12 [MYRICETIN]"
quantity = "viability at 24 h, 1 µM"
endpoint_value = 97.7

[[record]]
compound = "O=c1c(O[C@@H]2O[C@H](CO)[C@@H](O)[C@H](O)[C@H]2O)c(-c2ccc(O)c(O)c2)oc2cc(O)cc(O)c12 [ISOQUERCETIN]"
quantity = "viability at 24 h, 1 µM"
endpoint_value = 101

[[record]]
compound = "C[C@@H]1O[C@@H](OC[C@H]2O[C@@H](Oc3c(-c4ccc(O)c(O)c4)oc4cc(O)cc(O)c4c3=O)[C@H](O)[C@@H](O)[C@@H]2O)[C@H](O)[C@H](O)[C@H]1O [RUTIN]"
quantity = "viability at 24 h, 1 µM"
endpoint_value = 97.2

[[record]]
compound = "Oc1cc(O)c2c(c1)O[C@]1(c3ccc(O)c(O)c3)Oc3cc(O)c4c(c3[C@H]2[C@@H]1O)O[C@@]1(c2ccc(O)c(O)c2)Oc2cc(O)c3c(c2[C@@H]4[C@H]1O)O[C@@H](c1ccc(O)c(O)c1)[C@H](O)C3"
quantity = "viability at 24 h, 1 µM"
endpoint_value = 94.4

[[record]]
compound = "COc1cc(/C=C/C(=O)O)cc(OC)c1O[C@@H]1O[C@H](CO)[C@@H](O)[C@H](O)[C@H]1O"
quantity = "viability at 24 h, 1 µM"
endpoint_value = 94.5

[[record]]
compound = "C[C@@H]1O[C@@H](OC[C@H]2O[C@@H](Oc3c(-c4cc(O)c(O)c(O)c4)oc4cc(O)cc(O)c4c3=O)[C@H](O)[C@@H](O)[C@@H]2O)[C@H](O)[C@H](O)[C@H]1O"
quantity = "viability at 24 h, 1 µM"
endpoint_value = 92.2

[[record]]
compound = "COc1cc(-c2oc3cc(O)cc(O)c3c(=O)c2O[C@@H]2O[C@H](CO[C@@H]3O[C@@H](C)[C@H](O)[C@@H](O)[C@H]3O)[C@@H](O)[C@H](O)[C@H]2O)ccc1O [NARCISSIN]"
quantity = "viability at 24 h, 1 µM"
endpoint_value = 95.1

[[record]]
compound = "C[C@@H]1O[C@@H](Oc2c(-c3ccc(O)c(O)c3)oc3cc(O)cc(O)c3c2=O)[C@H](O)[C@H](O)[C@H]1O [QUERCITRIN]"
quantity = "viability at 24 h, 1 µM"
endpoint_value = 92

